Cited source: patent US20150086555A1

- target_under_test: recombinant homotrimeric HA A/Japan/305/57 H2N2 (Influenza A virus A/Japan/305/1957(H2N2))
- assay_overview: protein microarray, purified IgG, trimeric HA
- particulars: remark: other sources report otherwise
property_name: log10 Trimeric HA Binding: RLU (log10 of the value in RLU)
Units before log transform: RLU; reported quantity: Trimeric HA Binding: RLU; transform: log10.

| binder | property_name | observed_value |
| --- | --- | --- |
| TCN-530 (5248_H10a) (antibody, V domains shown) VH: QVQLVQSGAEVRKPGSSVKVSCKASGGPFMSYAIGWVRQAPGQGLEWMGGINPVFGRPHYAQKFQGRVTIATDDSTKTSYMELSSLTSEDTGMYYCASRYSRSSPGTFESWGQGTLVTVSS VL: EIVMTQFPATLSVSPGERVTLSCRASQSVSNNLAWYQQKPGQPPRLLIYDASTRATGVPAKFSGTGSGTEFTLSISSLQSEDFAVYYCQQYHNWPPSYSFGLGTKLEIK | log10 Trimeric HA Binding: RLU | 3.96 |
| TCN-523 (5248_A17) (antibody, V domains shown) VH: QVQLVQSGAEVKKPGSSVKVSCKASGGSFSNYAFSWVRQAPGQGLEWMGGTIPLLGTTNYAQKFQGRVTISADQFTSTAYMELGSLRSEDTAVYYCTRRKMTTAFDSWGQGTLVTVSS VL: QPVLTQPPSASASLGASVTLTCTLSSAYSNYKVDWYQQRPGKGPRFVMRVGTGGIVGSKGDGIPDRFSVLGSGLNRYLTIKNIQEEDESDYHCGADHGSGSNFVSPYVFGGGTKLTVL | log10 Trimeric HA Binding: RLU | 4.18 |
| TCN-532 (5262_H18) (antibody, V domains shown) VH: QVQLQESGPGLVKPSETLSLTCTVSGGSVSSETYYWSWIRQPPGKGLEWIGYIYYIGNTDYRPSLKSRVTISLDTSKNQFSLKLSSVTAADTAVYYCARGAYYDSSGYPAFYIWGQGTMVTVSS VL: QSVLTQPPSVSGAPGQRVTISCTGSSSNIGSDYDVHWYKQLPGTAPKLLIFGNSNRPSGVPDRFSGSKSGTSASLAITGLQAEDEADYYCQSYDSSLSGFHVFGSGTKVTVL | log10 Trimeric HA Binding: RLU | 2.88 |

Measured log10 Trimeric HA Binding: RLU of TCN-540 (5060_F05) (antibody, V domains shown) VH: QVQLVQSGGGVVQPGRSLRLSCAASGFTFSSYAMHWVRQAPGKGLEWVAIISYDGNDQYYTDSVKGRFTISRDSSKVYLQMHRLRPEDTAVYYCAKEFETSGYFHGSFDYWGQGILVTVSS VL: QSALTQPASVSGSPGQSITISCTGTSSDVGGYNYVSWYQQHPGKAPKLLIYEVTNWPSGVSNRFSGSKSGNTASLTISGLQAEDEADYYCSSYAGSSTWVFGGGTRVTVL : 4.46

Measured log10 Trimeric HA Binding: RLU of TCN-554 (5277_M05) (antibody, V domains shown) VH: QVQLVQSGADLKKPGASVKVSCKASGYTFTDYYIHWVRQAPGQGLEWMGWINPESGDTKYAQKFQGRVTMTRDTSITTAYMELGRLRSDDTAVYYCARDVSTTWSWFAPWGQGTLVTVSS VL: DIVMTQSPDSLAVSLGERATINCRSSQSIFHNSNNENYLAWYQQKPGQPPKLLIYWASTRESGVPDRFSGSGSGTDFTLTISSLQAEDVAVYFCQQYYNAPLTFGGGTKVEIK : 2.85

Measured log10 Trimeric HA Binding: RLU of TCN-542 (5079_A16) (antibody, V domains shown) VH: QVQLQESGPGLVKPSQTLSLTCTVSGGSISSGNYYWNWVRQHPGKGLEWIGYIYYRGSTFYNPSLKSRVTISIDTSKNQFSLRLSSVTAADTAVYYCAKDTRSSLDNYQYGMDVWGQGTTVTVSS VL: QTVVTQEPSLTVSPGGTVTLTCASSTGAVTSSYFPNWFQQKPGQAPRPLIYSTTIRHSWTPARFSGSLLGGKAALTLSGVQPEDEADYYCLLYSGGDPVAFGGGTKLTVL : 2.70

Measured log10 Trimeric HA Binding: RLU of TCN-557 (5081_A04) (antibody, V domains shown) VH: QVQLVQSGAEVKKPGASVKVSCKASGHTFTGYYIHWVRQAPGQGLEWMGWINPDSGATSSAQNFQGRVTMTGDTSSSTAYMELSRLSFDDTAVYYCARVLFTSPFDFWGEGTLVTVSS VL: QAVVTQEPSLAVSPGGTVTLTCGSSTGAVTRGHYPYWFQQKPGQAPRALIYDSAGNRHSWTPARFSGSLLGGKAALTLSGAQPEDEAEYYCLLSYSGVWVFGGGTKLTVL : 4.46

Measured log10 Trimeric HA Binding: RLU of TCN-553 (5261_C18) (antibody, V domains shown) VH: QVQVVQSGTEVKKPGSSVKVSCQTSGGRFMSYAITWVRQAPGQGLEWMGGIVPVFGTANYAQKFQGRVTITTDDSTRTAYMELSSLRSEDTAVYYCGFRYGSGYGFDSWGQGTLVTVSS VL: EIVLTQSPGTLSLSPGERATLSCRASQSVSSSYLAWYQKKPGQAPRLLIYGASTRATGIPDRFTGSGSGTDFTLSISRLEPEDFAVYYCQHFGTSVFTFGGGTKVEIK : 4.41

Measured log10 Trimeric HA Binding: RLU of TCN-529 (5297_H01) (antibody, V domains shown) VH: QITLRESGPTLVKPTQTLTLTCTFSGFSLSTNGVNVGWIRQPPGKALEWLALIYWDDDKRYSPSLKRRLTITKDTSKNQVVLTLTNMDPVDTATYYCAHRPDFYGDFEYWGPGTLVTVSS VL: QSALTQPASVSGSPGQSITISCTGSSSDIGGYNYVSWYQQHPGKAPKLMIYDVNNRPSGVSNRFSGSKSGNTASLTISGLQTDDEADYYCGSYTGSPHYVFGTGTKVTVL : 3.19

Measured log10 Trimeric HA Binding: RLU of TCN-537 (3194_D21) (antibody, V domains shown) VH: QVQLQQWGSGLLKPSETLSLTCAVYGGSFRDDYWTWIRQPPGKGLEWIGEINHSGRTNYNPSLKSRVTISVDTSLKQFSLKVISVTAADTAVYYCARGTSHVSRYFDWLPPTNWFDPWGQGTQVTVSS VL: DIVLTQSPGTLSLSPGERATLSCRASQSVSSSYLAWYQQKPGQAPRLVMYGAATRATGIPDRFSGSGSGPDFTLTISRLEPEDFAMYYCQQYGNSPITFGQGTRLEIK : 4.29
